Reference for the values: patent US20130136743A1

Exercise: for every item that follows, state its recorded koff.
- Experimental system: T1, AMHR-II/Fc fusion protein (human, UniProt Q16671 18-149, limits assumed)
- T1 construct: also called AMHR-II recombinant receptor expressed in the form of fusion protein with a region Fc; recombinant target; not shown: Fc region
- T1 sequence (Q16671 18-149 limits assumed): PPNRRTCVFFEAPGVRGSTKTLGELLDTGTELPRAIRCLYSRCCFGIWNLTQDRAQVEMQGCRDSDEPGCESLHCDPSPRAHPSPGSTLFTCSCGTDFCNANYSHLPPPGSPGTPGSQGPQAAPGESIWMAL
- Protocol description: SPR, BIAcore X100; AMHR-II/Fc immobilised on CM5 chip, antibody injected; 25 C
API: value field is a number in s⁻¹; no unit string.

// mutated humanized 12G4 antibody 3C-23 produced in CHO (antibody, human IgG1, kappa, V domains shown, also called 3C_23 CHO) VH: QVRLVQSGAEVKKPGASVKVSCKASGYTFTSYHIHWVRQAPGQRLEWMGWIYPGDDSTKYSQKFQGRVTITRDTSASTAYMELSSLRSEDTAVYYCTRGDRFAYWGQGTLVTVSS VL: DIQMTQSPSTLSASVGDRVTITCRASSSVRYIAWYQQKPGKAPKLLTYPTSSLESGVPSRFSGSGSGTEFTLTISSLQPDDFATYYCLQWSSYPWTFGGGTKVEIKR : koff value = 0.0043

// mutated humanized 12G4 antibody 3C-23K produced in YB2/0 (antibody, human IgG1, kappa, V domains shown, Chains without leader; also called 3C_23K YB2/0; 3C-23K-YB2/0) VH: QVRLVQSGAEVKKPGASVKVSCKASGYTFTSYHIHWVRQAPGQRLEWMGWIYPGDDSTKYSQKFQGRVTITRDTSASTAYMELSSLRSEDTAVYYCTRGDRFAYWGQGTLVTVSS VL: DIQMTQSPSTLSASVGDRVTITCRASSSVRYIAWYQQKPGKAPKLLTYPTSSLKSGVPSRFSGSGSGTEFTLTISSLQPDDFATYYCLQWSSYPWTFGGGTKVEIKR : koff value = 0.00086

// mutated humanized 12G4 antibody 6B-78 produced in YB2/0 (antibody, human IgG1, kappa, V domains shown, Chains without leader; Mutation VL-E184K; also called 6B_78 YB2/0; R901 6B78) VH: QVQLVQSGAEVKKPGASVKVSCKASGYTFTSYHIHWVRQAPGQRLEWMGWIYPGDDSTKYSQKFQGRVTITRDTSASTAYMELSSLRSEDTAVYYCTRGDRFAYWGQGTLVTVSS VL: DIQMTQSPSTLSASVGDRVTITCRASSSVRYIAWYQQKPGKAPKLLIYSTSSLKSGVPSRFSGSGSGTEFTLTISSLQPDDFATYYCLQWSSYPWTFGGGTKVEIKR : koff value = 0.0013

// mutated humanized 12G4 antibody 3C-23K produced in CHO (antibody, human IgG1, kappa, V domains shown, also called 3C_23K CHO; 3C-23K-CHO) VH: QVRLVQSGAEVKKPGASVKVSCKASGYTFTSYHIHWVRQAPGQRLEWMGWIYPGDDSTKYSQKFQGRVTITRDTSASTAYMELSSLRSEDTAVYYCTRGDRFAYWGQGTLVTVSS VL: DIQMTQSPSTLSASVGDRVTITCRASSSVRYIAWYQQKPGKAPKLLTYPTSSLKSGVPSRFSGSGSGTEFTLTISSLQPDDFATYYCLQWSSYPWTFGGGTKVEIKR : koff value = 0.001
